experimentalTarget: USP30 (Homo sapiens)
Construct: purchased Boston Biochem E582
assayComment: USP30 biochemical IC50 assay (fluorescence polarisation)
setupConditions: read-out: USP30 IC50
assayReadout: pIC50
Scale: pIC50 equals -log10([C]), with [C] in mol/L.

COC[C@H]1C[C@@H](NC(=O)c2ncc(-c3cccc(OC(F)(F)F)c3)o2)CN1C#N	8.10
C[C@@H]1C[C@@H](NC(=O)c2ncc(-c3cccc(OC(F)(F)F)c3)o2)CN1C#N	8.30
COC[C@@H]1C[C@@H](NC(=O)c2ncc(-c3cccc(OC(F)(F)F)c3)o2)CN1C#N	8.30

Query compound follows.
Kindly note the recorded pIC50 for N#Cc1ccc(-c2cnc(NC(=O)[C@H]3CCN(C#N)C3)s2)cc1OC(F)(F)F [B, reference compound] , which is 6.76

----------
System: USP2, USP10, USP16, USP21, USP22, USP25, USP28
assayComment: DUB IC50, seven DUBs
Format: biochemical
setupConditions: range over the seven DUBs
Listing of recorded DUB selectivity preference for USP30 v 7 DUBs by entry.

COc1cccc(-c2cc(C(=O)N[C@@H]3CCN(C#N)C3)on2)c1 [Reference Example A, reference compound]	2.7-141
COC[C@@H]1C[C@@H](NC(=O)c2ncc(-c3cccc(OC(F)(F)F)c3)o2)CN1C#N	880-14380
COC[C@H]1C[C@@H](NC(=O)c2ncc(-c3cccc(OC(F)(F)F)c3)o2)CN1C#N	>37500

Now, please, on to the next compound.
C[C@@H]1C[C@@H](NC(=O)c2ncc(-c3cccc(OC(F)(F)F)c3)o2)CN1C#N tested on USP2, USP10, USP16, USP21, USP22, USP25, USP28 gave DUB selectivity preference for USP30 v 7 DUBs: 940->20000

----------
assayComment: PK mouse
Assay type: in vivo
setupConditions: in vivo, po; mouse, 10 mg/kg; read-out: PK mouse Oral F (%)
assayReadout: bioavailability (%)
Field format: number, assumed %, no unit text.

For C[C@@H]1C[C@@H](NC(=O)c2ncc(-c3cccc(OC(F)(F)F)c3)o2)CN1C#N [Example 2] the compound record lists bioavailability as 36

----------
experimentalTarget: USP30 (Homo sapiens, UniProt Q70CQ3)
Construct: purchased Boston Biochem E582
Sequence (Q70CQ3 57-517 limits assumed): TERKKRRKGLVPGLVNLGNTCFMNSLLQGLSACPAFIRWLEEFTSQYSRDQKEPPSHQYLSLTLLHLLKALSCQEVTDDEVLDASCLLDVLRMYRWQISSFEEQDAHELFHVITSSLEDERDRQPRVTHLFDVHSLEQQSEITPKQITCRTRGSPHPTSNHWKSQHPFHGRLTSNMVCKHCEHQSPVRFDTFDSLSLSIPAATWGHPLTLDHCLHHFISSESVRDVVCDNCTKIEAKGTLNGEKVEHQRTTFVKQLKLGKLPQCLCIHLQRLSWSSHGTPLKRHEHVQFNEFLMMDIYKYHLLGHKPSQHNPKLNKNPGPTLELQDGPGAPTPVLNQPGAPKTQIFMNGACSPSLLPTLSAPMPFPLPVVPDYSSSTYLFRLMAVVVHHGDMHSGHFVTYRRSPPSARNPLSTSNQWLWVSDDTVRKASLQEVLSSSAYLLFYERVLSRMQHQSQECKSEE
assayComment: USP30 biochemical IC50 assay (fluorescence polarisation)
setupConditions: read-out: DUB IC50 (μM) USP30
assayReadout: IC50 (µM)
Give the quantity in µM, number only.

GET /value?item= N#Cc1ccc(-c2cnc(NC(=O)[C@H]3CCN(C#N)C3)s2)cc1OC(F)(F)F [B, reference compound] &field=IC50 returns 0.172

----------
assayComment: PK mouse
Type: in vivo
setupConditions: plasma, po; mouse, 10 mg/kg; read-out: PK mouse Oral F (%)
assayReadout: bioavailability (%)
The reply should be a number in %, with the unit left off.

Looking up COC[C@@H]1C[C@@H](NC(=O)c2ncc(-c3cccc(OC(F)(F)F)c3)o2)CN1C#N , I see its bioavailability listed as 59

----------
Tested on: P-glycoprotein (MDR1), human
assayComment: MDR1-MDCK flux assay
Format: in vitro ADME
setupConditions: dog
assayReadout: efflux ratio
Lab note: write the figure by itself, no unit.

COC[C@@H]1C[C@@H](NC(=O)c2ncc(-c3cccc(OC(F)(F)F)c3)o2)CN1C#N	5.4

Shift focus to the following entry.
Memo: C[C@@H]1C[C@@H](NC(=O)c2ncc(-c3cccc(OC(F)(F)F)c3)o2)CN1C#N , reported efflux ratio: 1.9

----------
Test system: P-glycoprotein (MDR1), human
assayComment: MDR1-MDCK flux assay
Assay type: in vitro ADME
setupConditions: dog, A-B, value in brackets
Items are presented alongside their recorded Papp A→B.
Expressed in ×10⁻⁶ cm/s, but write only the number.

Input COC[C@@H]1C[C@@H](NC(=O)c2ncc(-c3cccc(OC(F)(F)F)c3)o2)CN1C#N . Output Papp A→B: 18

Measured Papp A→B of C[C@@H]1C[C@@H](NC(=O)c2ncc(-c3cccc(OC(F)(F)F)c3)o2)CN1C#N : 12

----------
Tested on: UCHL1, USP1, USP2, USP6, USP9x, USP10, USP15, USP16, USP20, USP21, USP22, USP25, USP28, USP35, USP36, USP46/UAF1
Construct: other: each of UCHL1, USP1, USP2, USP6, USP9x, USP10, USP15, USP16, USP20, USP21, USP22, U
assayComment: DUB biochemical IC50 assays (off-target panel)
setupConditions: each of UCHL1, USP1, USP2, USP6, USP9x, USP10, USP15, USP16, USP20, USP21, USP22, USP25, USP28, USP35, USP36, USP46/UAF1; read-out: IC50 (μM) against DUB panel
assayReadout: IC50

What the record says about COC[C@@H]1C[C@@H](NC(=O)c2ncc(-c3cccc(OC(F)(F)F)c3)o2)CN1C#N : IC50 is ≥ 4.4 µM

----------
Entries and their measured half-life follow.
assayComment: Mouse plasma stability
Format: in vitro ADME
setupConditions: read-out: Stability Mouse plasma t1/2
# unit: h | format: bare number

C[C@@H]1C[C@@H](NC(=O)c2ncc(-c3cccc(OC(F)(F)F)c3)o2)CN1C#N [Example 2]	7

We now examine a further compound.
Sample COC[C@@H]1C[C@@H](NC(=O)c2ncc(-c3cccc(OC(F)(F)F)c3)o2)CN1C#N [Example 1] ; half-life observed: 11

----------
experimentalTarget: UCHL1 (Homo sapiens)
Sequence (P09936 whole entry, species assumed): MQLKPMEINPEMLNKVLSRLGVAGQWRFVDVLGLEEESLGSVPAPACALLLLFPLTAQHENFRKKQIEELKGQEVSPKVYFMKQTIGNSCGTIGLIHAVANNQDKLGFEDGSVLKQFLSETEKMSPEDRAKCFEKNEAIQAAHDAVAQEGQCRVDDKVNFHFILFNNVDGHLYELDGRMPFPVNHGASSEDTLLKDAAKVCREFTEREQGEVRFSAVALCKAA
assayComment: DUB IC50 UCHL1
Type: biochemical
Entries and their measured IC50 follow.

COC[C@H]1C[C@@H](NC(=O)c2ncc(-c3cccc(OC(F)(F)F)c3)o2)CN1C#N [Example 3]	> 300 µM
N#Cc1ccc(-c2cnc(NC(=O)[C@H]3CCN(C#N)C3)s2)cc1OC(F)(F)F [B, reference compound]	0.77 µM
C[C@@H]1C[C@@H](NC(=O)c2ncc(-c3cccc(OC(F)(F)F)c3)o2)CN1C#N [Example 2]	> 100 µM

Short answer for COC[C@@H]1C[C@@H](NC(=O)c2ncc(-c3cccc(OC(F)(F)F)c3)o2)CN1C#N [Example 1] : IC50 was > 300 µM

----------
experimentalTarget: Cathepsin L (Homo sapiens)
Sequence (P07711 114-333, species assumed): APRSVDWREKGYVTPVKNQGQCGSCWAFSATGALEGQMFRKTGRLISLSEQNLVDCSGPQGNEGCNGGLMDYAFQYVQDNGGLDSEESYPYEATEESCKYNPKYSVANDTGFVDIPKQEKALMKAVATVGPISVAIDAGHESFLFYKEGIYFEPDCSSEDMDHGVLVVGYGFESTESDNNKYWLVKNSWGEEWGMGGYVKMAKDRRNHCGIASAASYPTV
assayComment: Cathepsin IC50, Cathepsin L
Type: biochemical
assayReadout: IC50 (µM)
Note: unit µM is implicit; provide only the numeric part.

IC50 reading for COC[C@@H]1C[C@@H](NC(=O)c2ncc(-c3cccc(OC(F)(F)F)c3)o2)CN1C#N : 17.7

----------
experimentalTarget: UCHL1 (Homo sapiens)
assayComment: DUB IC50 UCHL1
Assay type: biochemical
# DUB selectivity preference for USP30 v UCHL1 per record follows

Sample records with DUB selectivity preference for USP30 v UCHL1:
COC[C@@H]1C[C@@H](NC(=O)c2ncc(-c3cccc(OC(F)(F)F)c3)o2)CN1C#N	60000
COC[C@H]1C[C@@H](NC(=O)c2ncc(-c3cccc(OC(F)(F)F)c3)o2)CN1C#N	37500
C[C@@H]1C[C@@H](NC(=O)c2ncc(-c3cccc(OC(F)(F)F)c3)o2)CN1C#N	20000

Field DUB selectivity preference for USP30 v UCHL1 (entry N#Cc1ccc(-c2cnc(NC(=O)[C@H]3CCN(C#N)C3)s2)cc1OC(F)(F)F [B, reference compound] ) reads 4.5

----------
experimentalTarget: Cathepsin B (Homo sapiens, UniProt P07858)
assayComment: Cathepsin IC50, Cathepsin B
Type: biochemical
assayReadout: IC50 (µM)
Your answer is read as µM, so omit the unit and give the number.

COC[C@@H]1C[C@@H](NC(=O)c2ncc(-c3cccc(OC(F)(F)F)c3)o2)CN1C#N yielded IC50 of 44.3

----------
Each record here notes measured IC50.
Tested on: USP2, USP10, USP16, USP21, USP22, USP25, USP28
Construct: DUB IC50 (μM) USP2, USP10, USP16, USP21, USP22, USP25, USP28; other: range over the seven DUBs
assayComment: DUB IC50, seven DUBs
Assay type: biochemical
setupConditions: range over the seven DUBs

COc1cccc(-c2cc(C(=O)N[C@@H]3CCN(C#N)C3)on2)c1 [Reference Example A, reference compound]	0.19 to 9.9 µM

Considering COC[C@@H]1C[C@@H](NC(=O)c2ncc(-c3cccc(OC(F)(F)F)c3)o2)CN1C#N , its IC50 with USP2, USP10, USP16, USP21, USP22, USP25, USP28 was recorded as 4.4 to 71.9 µM

The molecule COC[C@H]1C[C@@H](NC(=O)c2ncc(-c3cccc(OC(F)(F)F)c3)o2)CN1C#N , tested on USP2, USP10, USP16, USP21, USP22, USP25, USP28, showed IC50 of > 300 µM

Lab entry: USP2, USP10, USP16, USP21, USP22, USP25, USP28 assay, molecule C[C@@H]1C[C@@H](NC(=O)c2ncc(-c3cccc(OC(F)(F)F)c3)o2)CN1C#N , IC50 = ≥ 4.7 µM
